Tested on: K562 human chronicity marrow leukemic cells
assayOverview: Tumor cell inhibition ratio, CCK-8 kit, K562
conditionSummary: K562, read-out: Antiproliferative effect (inhibition ratio) K562
readoutType: inhibition at 100 µM
Record the result as number plus unit.

Some solved cases for reference:
{"columns": ["molecule", "inhibition at 100 µM"],
 "data": [
  ["COc1cc2c(cc1OCCCN1CCNCC1)C1=Nc3cccc(F)c3CN1C=N2 [Compound V-25]", "82.8%"],
  ["C#Cc1cccc2c1CN1C=Nc3cc(OC)c(OCCCN4CCOCC4)cc3C1=N2 [Compound V-26]", "11.7%"],
  ["COCCOc1cc2c(cc1OCCOC)C1=Nc3cc(C#N)ccc3CN1C=N2 [Compound V-17]", "25.2%"]
]}

Item COCCOc1cc2c(cc1OCCOC)C1=Nc3cc(Cl)ccc3C(C)N1C=N2.O=C(O)CC(O)C(=O)O (centres unmarked) [Compound V-22, malate] has what recorded inhibition at 100 µM?
88.8%

Item Br.COCCOc1cc2c(cc1OCCOC)C1=Nc3cccc(N)c3CN1C=N2 [Compound V-6, hydrobromide trihydrate] has what recorded inhibition at 100 µM?
82.8%

Item C#Cc1cccc2c1CN1C=Nc3cc(OC)c(OC)cc3C1=N2 [Compound V-31] has what recorded inhibition at 100 µM?
85%

Item COc1cc2c(cc1OCCCN1CCOCC1)C1=Nc3cccc(C#N)c3CN1C=N2 [Compound V-27] has what recorded inhibition at 100 µM?
62.2%

Item COc1cc2c(cc1OCCCN1CCOCC1)C1=Nc3cc(Cl)ccc3CN1C=N2 [Compound V-28] has what recorded inhibition at 100 µM?
99.9%

###

Tested on: PC-3 human carcinoma of prostate
assayOverview: Tumor cell inhibition ratio, CCK-8 kit, PC-3
conditionSummary: read-out: Antiproliferative effect (inhibition ratio) PC-3
# inhibition at 10 µM values compiled below

{"columns": ["molecule", "inhibition at 10 µM"],
 "data": [
  ["COc1cc2c(cc1OCCCN1CCOCC1)C1=Nc3cc(Cl)ccc3CN1C=N2", "56.4%"],
  ["COc1cc2c(cc1OCCCN1CCNCC1)C1=Nc3cccc(F)c3CN1C=N2", "53.4%"],
  ["COc1cc2c(cc1OCCCN1CCOCC1)C1=Nc3cccc(C#N)c3CN1C=N2", "25.2%"],
  ["COCCOc1cc2c(cc1OCCOC)C1=Nc3cc(COS(C)(=O)=O)cc([N+](=O)[O-])c3CN1C=N2.Cl [Compound V-20, hydrochloride]", "46.8%"],
  ["C#Cc1cccc2c1CN1C=Nc3cc(OC)c(OC)cc3C1=N2", "29.4%"],
  ["COCCOc1cc2c(cc1OCCOC)C1=Nc3cc(CO)cc(N)c3CN1C=N2", "27.6%"],
  ["COCCOc1cc2c(cc1OCCOC)C1=Nc3ccc(OCc4cccc(F)c4)c(Cl)c3CN1C=N2", "38.5%"]
]}

Field: next molecule
Item C#Cc1cccc2c1CN1C=Nc3cc(OCCOC)c(OCCOC)cc3C1=N2.Cl [Compound V-4, hydrochloride trihydrate] has what recorded inhibition at 10 µM?
22.2%

###

# The inhibition ratio of the compound on EGFR(%) values compiled below
testTarget: EGFR tyrosine kinase (Homo sapiens)
Sequence (P00533 25-1210): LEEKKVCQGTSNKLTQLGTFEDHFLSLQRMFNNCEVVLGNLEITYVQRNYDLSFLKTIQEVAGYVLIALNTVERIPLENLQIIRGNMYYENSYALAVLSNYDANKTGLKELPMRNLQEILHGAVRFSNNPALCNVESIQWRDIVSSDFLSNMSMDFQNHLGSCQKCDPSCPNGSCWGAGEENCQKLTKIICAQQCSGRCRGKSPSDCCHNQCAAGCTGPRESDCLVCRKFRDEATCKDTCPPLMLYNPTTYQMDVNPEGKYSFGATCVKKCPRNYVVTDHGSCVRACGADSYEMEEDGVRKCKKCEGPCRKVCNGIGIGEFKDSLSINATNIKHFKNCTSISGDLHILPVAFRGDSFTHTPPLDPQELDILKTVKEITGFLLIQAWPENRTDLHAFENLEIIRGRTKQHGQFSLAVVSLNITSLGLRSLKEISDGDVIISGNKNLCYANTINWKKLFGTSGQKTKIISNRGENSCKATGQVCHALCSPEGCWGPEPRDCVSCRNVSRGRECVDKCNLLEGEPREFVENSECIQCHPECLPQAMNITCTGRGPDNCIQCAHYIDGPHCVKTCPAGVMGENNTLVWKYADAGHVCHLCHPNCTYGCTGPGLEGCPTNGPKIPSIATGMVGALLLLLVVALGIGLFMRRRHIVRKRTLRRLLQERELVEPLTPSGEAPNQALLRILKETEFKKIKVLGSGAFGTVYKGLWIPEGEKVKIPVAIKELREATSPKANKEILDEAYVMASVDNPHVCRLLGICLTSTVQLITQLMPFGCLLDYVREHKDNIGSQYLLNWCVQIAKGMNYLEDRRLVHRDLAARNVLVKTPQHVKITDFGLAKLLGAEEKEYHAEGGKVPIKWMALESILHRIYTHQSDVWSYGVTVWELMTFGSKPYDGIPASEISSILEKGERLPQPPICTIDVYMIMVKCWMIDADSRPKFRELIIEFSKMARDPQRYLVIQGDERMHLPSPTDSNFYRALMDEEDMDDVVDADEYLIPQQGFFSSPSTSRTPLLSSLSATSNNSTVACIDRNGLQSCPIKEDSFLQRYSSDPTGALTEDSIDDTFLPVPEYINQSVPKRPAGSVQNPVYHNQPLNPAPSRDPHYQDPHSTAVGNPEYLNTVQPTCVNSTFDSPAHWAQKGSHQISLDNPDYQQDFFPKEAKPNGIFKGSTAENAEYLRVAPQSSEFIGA
assayOverview: EGFR tyrosine kinase inhibition in vitro (Invitrogen EGFR inhibitor screening kit PV3193)
conditionSummary: 40 μM
Respond numerically; units are % and should not be typed.

Some solved cases for reference:
{"columns": ["compound", "unitAnnotation", "obsValue"],
 "data": [
  ["COCCOc1cc2c(cc1OCCOC)C1=Nc3cccc([N+](=O)[O-])c3CN1C=N2 [Compound V-5]", "%", 25.2],
  ["COCCOc1cc2c(cc1OCCOC)C1=Nc3cc(C#N)ccc3CN1C=N2 [Compound V-17]", "%", 25.4],
  ["CS(=O)(=O)CCNCc1ccc(-c2ccc3c(c2)C2=Nc4ccc(OCc5cccc(F)c5)c(Cl)c4CN2C=N3)o1 [Compound V-33]", "%", 64.3],
  ["COCCOc1cc2c(cc1OCCOC)C1=Nc3cccc(NC(C)=O)c3CN1C=N2 [Compound V-11]", "%", 56.4],
  ["COc1cc2c(cc1OC)C1=Nc3ccc(F)c(Cl)c3CN1C=N2 [Compound V-30]", "%", 27.8],
  ["CS(=O)(=O)CCNCc1ccc(-c2ccc3c(c2)C2=Nc4cc(Cl)ccc4CN2C=N3)o1 [Compound V-36]", "%", 55.6],
  ["COCCOc1cc2c(cc1OCCOC)C1=Nc3cccc(C#N)c3CN1C=N2 [Compound V-7]", "%", 36.2],
  ["COc1cc2c(cc1OCCCN1CCOCC1)C1=Nc3cc(Cl)ccc3CN1C=N2 [Compound V-28]", "%", 64.4],
  ["Br.COCCOc1cc2c(cc1OCCOC)C1=Nc3cccc(N)c3CN1C=N2 [Compound V-6]", "%", 55.2],
  ["COCCOc1cc2c(cc1OCCOC)C1=Nc3cccc(NC(=O)c4ccccc4)c3CN1C=N2 [Compound V-12]", "%", 25.8]
]}

Item COCCOc1cc2c(cc1OCCOC)C1=Nc3cc(COS(C)(=O)=O)cc([N+](=O)[O-])c3CN1C=N2.Cl [Compound V-20] has what recorded The inhibition ratio of the compound on EGFR(%)?
59.9

Item C#Cc1cccc2c1CN1C=Nc3cc(OCCOC)c(OCCOC)cc3C1=N2.Cl [Compound V-4] has what recorded The inhibition ratio of the compound on EGFR(%)?
48.7

Item COCCOc1cc2c(cc1OCCOC)C1=Nc3cc(Cl)ccc3C(C)N1C=N2.O=C(O)CC(O)C(=O)O (stereo not shown) [Compound V-22] has what recorded The inhibition ratio of the compound on EGFR(%)?
63.2

Item COc1cc2c(cc1OCCCN1CCOCC1)C1=Nc3cc(COS(C)(=O)=O)cc([N+](=O)[O-])c3CN1C=N2 [Compound V-29] has what recorded The inhibition ratio of the compound on EGFR(%)?
35.2

Item C#Cc1ccc2c(c1)N=C1c3cc(OCCOC)c(OCCOC)cc3N=CN1C2 [Compound V-19] has what recorded The inhibition ratio of the compound on EGFR(%)?
53.4

Item C#Cc1cccc2c1CN1C=Nc3cc(OC)c(OC)cc3C1=N2 [Compound V-31] has what recorded The inhibition ratio of the compound on EGFR(%)?
30.6

###

Tested on: Colo320 human rectal cancer cells
assayOverview: Tumor cell inhibition ratio, CCK-8 kit, Colo320
conditionSummary: COLO 320, read-out: Antiproliferative effect (inhibition ratio) Colo320
readoutType: inhibition at 100 µM
Record the result as number plus unit.

Item COCCOc1cc2c(cc1OCCOC)C1=Nc3cccc(Cl)c3CN1C=N2.Cl [Compound V-1, hydrochloride monohydrate] has what recorded inhibition at 100 µM?
81%

Item COCCOc1cc2c(cc1OCCOC)C1=Nc3cc(COS(C)(=O)=O)cc([N+](=O)[O-])c3CN1C=N2.Cl [Compound V-20, hydrochloride] has what recorded inhibition at 100 µM?
92.3%

Item "COCCOc1cc2c(cc1OCCOC)C1=Nc3cc(O)ccc3CN1C=N2" has what recorded inhibition at 100 µM?
75.1%

Item "COCCOc1cc2c(cc1OCCOC)C1=Nc3cccc(C#N)c3CN1C=N2" has what recorded inhibition at 100 µM?
81.4%

Item "COc1cc2c(cc1OCCCN1CCNCC1)C1=Nc3cccc(F)c3CN1C=N2" has what recorded inhibition at 100 µM?
79.2%

Item "COCCOc1cc2c(cc1OCCOC)C1=Nc3ccc(OCc4cccc(F)c4)c(Cl)c3CN1C=N2" has what recorded inhibition at 100 µM?
88%

Item "COCCOc1cc2c(cc1OCCOC)C1=Nc3cccc(NC(C)=O)c3CN1C=N2" has what recorded inhibition at 100 µM?
96.3%

###

Test system: Hut78 T-Lymphocytic Leukemia cells
assayOverview: Tumor cell IC50, CCK-8 kit, Hut78
Type: cell-based
conditionSummary: Homo sapiens, Hut-78 cells
Where a name gives a salt, the structure may show the parent alone.
# IC50 values compiled below
Respond numerically; units are µg/mL and should not be typed.

Some solved cases for reference:
{"columns": ["compound", "testTarget", "IC50 (µg/mL)"],
 "data": [
  ["COc1cc2c(cc1OCCCN1CCOCC1)C1=Nc3cc(Cl)ccc3CN1C=N2", "Hut78 T-Lymphocytic Leukemia cells", 16.7],
  ["COc1cc2c(cc1OCCCN1CCCC1)C1=Nc3cccc(Cl)c3CN1C=N2", "Hut78 T-Lymphocytic Leukemia cells", 2.14],
  ["Br.COCCOc1cc2c(cc1OCCOC)C1=Nc3cccc(N)c3CN1C=N2", "Hut78 T-Lymphocytic Leukemia cells", 58.8]
]}

Field: next compound
Item C#Cc1cccc(Nc2ncnc3cc(OCCOC)c(OCCOC)cc23)c1 [Erlotinib hydrochloride, reference compound] has what recorded IC50?
43.2
